# Test system: SNB-75 CNS
# test details: NCI tumour cell line growth inhibition, 48 h
Below: a set of entries, each annotated with reported TGI.
Provide the reading as a plain figure in µM.

Reported TGI for COc1ccc(-c2cc(C(=O)N3N=C(c4ccc(N)cc4)CC3c3ccc(Cl)cc3)c3ccccc3n2)cc1 (centres undefined) : what is it?
8.66

Further, for COc1cc(C=C2c3ccccc3C(=O)c3ccccc32)ccc1OCCCCOc1cc2c(cc1OC)C(=O)N1CCCC1C=N2 (centres undefined) ?
1.8

Please do the same for `CN(c1ccc(Cl)c(Cl)c1)c1cnc2cc(N)cc(N)c2n1` as well.
9.57

Then `COc1ccccc1N=NC(C(=O)c1ccccc1)C(=O)c1ccccc1` ?
82.3

====

# Test system: UACC-257 melanoma
# test details: NCI tumour cell line growth inhibition, 48 h; in the data active means GI50 below about 0.43 µM; inactive means the rest
Can you answer with just one of these options? yes = active, no = inactive

{"columns": ["compound", "label value"],
 "data": [
  ["N#Cc1cc(-c2ccnc(Nc3ccc(NC(=O)CCl)cc3)n2)ccc1N1CCCC1", "no"],
  ["O=C(/C=C/c1c(-c2ccccc2)[nH]c2ccccc12)S(=O)(=O)c1ccccc1", "no"],
  ["C=C(C)[C@@H]1/C=C(/C(C)C)CC[C@@]2(C)OC2CC[C@H](C)CC1=O (stereo not given in full)", "no"],
  ["CN(c1ccc(Cl)c(Cl)c1)c1cnc2cc(N)cc(N)c2n1", "no"],
  ["COc1ccc(/C=C/C(=O)c2c(O)c(C)c(O)c3c2OC2=CC(O)=C(C(C)=O)C(=O)[C@]23C)cc1", "no"],
  ["COc1cc(C=C2c3ccccc3C(=O)c3ccccc32)ccc1OCCCCOc1cc2c(cc1OC)C(=O)N1CCCC1C=N2 (stereo not given)", "no"]
]}

Consider now this further compound.
Called result for `Cn1cc(-c2csc(-c3c[nH]c4ccc(F)cc34)n2)c2cccnc21`
no

====

# Tested on: T-47D breast
# test details: NCI tumour cell line growth inhibition, 48 h
measure: TGI

{"columns": ["compound", "TGI"],
 "data": [
  ["CCCCN(CC)C(=O)C1=C(C)NC(C)=C(C(=O)N(CC)CCCC)C1", "> 100 µM"]
]}

Now look at this entry.
Field request: TGI | item: CSc1ccc(C2=NN(c3ccccc3)C(c3ccc(-c4cc(Cl)c(Cl)cc4Cl)o3)C2)cc1 (stereo unspecified)
> 100 µM

====

# System: HOP-92 NSCLC
# test details: NCI tumour cell line growth inhibition, 48 h
measure: TGI

The cases that follow already have their TGI on record.
{"columns": ["compound", "assay result"],
 "data": [
  ["COC(=O)C1=CC(=O)OC1(OO)c1ccc(Br)cc1 (stereo unspecified)", "> 100 µM"],
  ["NCCC1([N+](=O)[O-])C=CN=CC1 (stereo unspecified)", "26.8 µM"],
  ["NC(CCCCO)C(=O)O (stereo unspecified)", "> 100 µM"],
  ["CN1CCN(CCCNN)CC1", "> 100 µM"],
  ["COc1ccc(C(c2ccc(OC)cc2)N2C(=O)CCC2C(=O)O)cc1 (stereo unspecified)", "> 100 µM"]
]}

Request - read-out TGI | tested on HOP-92 NSCLC | compound `COc1ccccc1/C=C/C(=O)c1ccc(Nc2nc(Nc3ccc(F)cc3)nc(Nc3ccc(F)cc3)n2)cc1`
46.5 µM

Query O=c1[nH]cnc2c1ncn2C1CCC(CO)O1 (stereo unspecified) next
> 1000 µM

Moving on to the next compound: `N#Cc1cc(-c2ccnc(Nc3ccc(NC(=O)CCl)cc3)n2)ccc1N1CCCC1`
> 25 µM

====

# System: HCT-116 colon
# test details: NCI tumour cell line growth inhibition, 48 h
Parameter TGI: see the listing below.
Return type: number; implicit unit µM.

{"columns": ["molecule smiles", "TGI, µM"],
 "data": [
  ["COc1cc2c(cc1OCCCCCN1C(=O)c3cccc4cccc(c34)C1=O)N=C[C@@H]1CCCN1C2=O", 3.13]
]}

Let us examine a further case.
What value of TGI has been recorded for this entry: `O=[N+]([O-])c1cc([N+](=O)[O-])c(NN=C(c2ccc(O)cc2)c2ccc(O)cc2)cc1Cl`
3.11

====

# Tested on: SK-MEL-28 melanoma
# test details: NCI tumour cell line growth inhibition, 48 h
This listing pairs compounds with measured TGI.

Example cases with answers are listed next.
{"columns": ["compound", "assay result"],
 "data": [
  ["CC(C)(C)OC(=O)NCC(=O)NC1CC=CCC1NC(=O)CNC(=O)OC(C)(C)C (stereo not given)", "> 100 µM"],
  ["CN(C)CCNc1c2c(c(NCCN(C)C)c3c(CN(C)C)c[nH]c13)C(=O)c1ccccc1C2=O", "38.2 µM"],
  ["N#CC1=C(N)OC2=C(CCCc3ccc([N+](=O)[O-])cc32)C1c1ccccc1 (stereo not given)", "22.4 µM"]
]}

Which TGI value belongs to `CCN(Cc1cc(F)cc(F)c1)c1ccc(CO)c(Cl)c1` ?
26.8 µM

# repeat for `COC1=CC(=O)c2c(c(-c3csc(C)n3)cn2C)C1=O`
> 100 µM

Subsequent entry: Cc1ccc(S(=O)(=O)N/N=C2/C3CCC(C3)C2c2ccccc2)cc1 (stereo not given)
> 100 µM

Then what about the compound c1ccc(COC2NCCN2Cc2ccccc2)cc1 (stereo not given) ?
> 100 µM

Next up: CC1(C)OC(C(C)(C)O)C(C(C)(C)O)O1 (stereo not given)
> 100 µM

Same again, this time with `O=C(O)C1(Nc2ccc(Cl)cc2)CCCC1`
> 100 µM

How about NC(N)=Nc1ccc(CC(N)C(=O)NCC(=O)C(CC(=O)O)c2ncc(NC(=O)C(F)(F)F)o2)cc1 (stereo not given) ?
> 25 µM

Further, for `O=C(C(=O)c1cc(-c2ccccc2)nc2ccc3ccccc3c12)c1ccccc1` ?
> 100 µM

Consider next the compound CCOC(=O)/C=C1/Oc2ccccc2C1(C)O (stereo not given) in the same way.
> 100 µM

Also, `CC1(C)C(=NNC(=S)NN)C(C)(C)C1=NNC(=S)NN` please.
> 100 µM

Try this compound too: Cc1cn(CC2=NCC(O)CN2)c(=O)[nH]c1=O (stereo not given)
> 100 µM

What do we get for `CCOc1ccccc1/C=C(/C#N)C(N)=O` ?
> 100 µM

====

# System: M14 melanoma
# test details: NCI tumour cell line growth inhibition, 48 h
measure: TGI

Some compounds with recorded TGI:
{"columns": ["compound", "TGI"],
 "data": [
  ["COc1ccccc1N=NC(C(=O)c1ccccc1)C(=O)c1ccccc1", "31.6 µM"],
  ["CC[C@@]1(O)C(=O)OCc2c1cc1n(c2=O)Cc2c-1nc1ccccc1c2/C=N/NC(=O)C[N+](C)(C)C", "20.5 µM"],
  ["C=CCOC1=C(OC(C)=O)C(=O)OC1C1COC(C)(C)O1 (stereo unspecified)", "> 80.7 µM"],
  ["CCCCCCCCNC(=O)SCCCC", "> 100 µM"]
]}

Which TGI is reported for this compound? CC(C)(C)[Si](C)(C)OC1(CCc2ccccc2OS(=O)(=O)C(F)(F)F)CCCC=C1COCc1ccccc1 (stereo unspecified)
> 100 µM

Same for `C=CCN1C(=O)CNC1=S`
> 100 µM

Continue with `O=C(O)[C@@H](NS(=O)(=O)c1ccc(F)cc1)c1ccccc1`
> 100 µM

// same read-out, input: `COc1ccc(Cc2c(N)[nH]c(=O)[nH]c2=O)cc1`
> 100 µM

Same again, this time with `COc1cc2c3c(c1Oc1nnnn1-c1ccccc1)-c1c(ccc4c1OCO4)C[C@H]3N(C)CC2`
37.5 µM

Queued: `O=C(CCC(=O)Nc1ccc(Cl)c(Cl)c1)CC(=O)c1ccc(Cl)cc1`
> 100 µM

How about this compound: CCOC(=O)CNC(=O)C(CSCC1C(=O)Nc2ccccc21)NC(=O)CCC(N)C(=O)OCC (stereo unspecified)
4.01 µM

====

# System: HCT-116 colon
# test details: NCI tumour cell line growth inhibition, 48 h
measure: TGI

# example entries with known answers
{"columns": ["compound", "TGI"],
 "data": [
  ["CC(=O)O[C@]1(C)CCC2C(C)C(=O)OC2C2C(C)[C@@H](O)CC21 (stereo not given in full)", "50.8 µM"],
  ["O=c1[nH]c2cc([N+](=O)[O-])ccc2nc1/C(=N/Nc1ccccc1)C(O)c1ccc(Cl)cc1Cl (stereo not given)", "> 100 µM"],
  ["c1ccc(COC2NCCN2Cc2ccccc2)cc1 (stereo not given)", "> 100 µM"]
]}

Look up TGI for this compound: `CCOC(=O)c1c(Sc2ccc([N+](=O)[O-])cc2[N+](=O)[O-])nc2c3ccccc3ccn12`
> 100 µM

Record: CCOC(=O)/C=C1/Oc2ccccc2C1(C)O (stereo not given)
> 100 µM

Entry source: PubChem BioAssay (NCI)
